Recorded values, source patent US20240182445A1.

# test-system: human TREK-1 (Homo sapiens)
# Construct: expressed in transfected cells
# Sequence (O95069 whole entry): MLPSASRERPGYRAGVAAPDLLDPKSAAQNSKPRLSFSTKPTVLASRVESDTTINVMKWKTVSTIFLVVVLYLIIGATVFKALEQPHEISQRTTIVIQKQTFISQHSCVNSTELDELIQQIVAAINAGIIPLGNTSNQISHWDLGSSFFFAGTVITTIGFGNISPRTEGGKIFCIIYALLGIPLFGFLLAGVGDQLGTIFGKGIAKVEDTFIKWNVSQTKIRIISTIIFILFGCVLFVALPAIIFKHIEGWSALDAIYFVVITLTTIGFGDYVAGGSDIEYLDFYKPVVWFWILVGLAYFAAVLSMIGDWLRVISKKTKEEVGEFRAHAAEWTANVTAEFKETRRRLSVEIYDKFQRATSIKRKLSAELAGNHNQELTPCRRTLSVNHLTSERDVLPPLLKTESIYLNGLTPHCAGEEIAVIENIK
# measurement-protocol: TREK-1 Thallium (Tl+) flux assay, Method 1
# Assay type: cell-based
# settings: TREK-1 Thallium (Tl+) flux assay; values without footnote *12 are Method 1
pIC50: −log10 of the molar value.
Parameter: pIC50. Scope: all listed entries.
quantity-name: pIC50

In [3]: df
Out[3]:
                                    compound                  test_system  readout_number
 0  CC(=O)N1CCC(C(C)n2ncc(Cl)c2C(=O)Nc2ncc(C#Cc3ccccc3)cc2F)CC1 (centres unmarked) [Compound 35]  human TREK-1 (Homo sapiens)            6.96
 1  O=C(Nc1ncc(C#Cc2ccccc2)cc1F)c1c(Cl)cnn1CC1CCN(C(=O)C2CC2)C1 (centres unmarked) [Compound 43]  human TREK-1 (Homo sapiens)            6.89
 2  N#CCCCn1ncc(Cl)c1C(=O)Nc1ncc(C#Cc2ccccc2)cc1F [Compound 59]  human TREK-1 (Homo sapiens)            6.82
 3  CC(=O)N1CCC(C#N)(Cn2ncc(Cl)c2C(=O)Nc2ncc(C#Cc3ccccc3)cc2C)CC1 [Compound 84]  human TREK-1 (Homo sapiens)            6.80
 4  CC(=O)N1CC[C@@H](Cn2ncc(Cl)c2C(=O)Nc2ncc(C#Cc3ccccc3)cc2F)[C@@H](F)C1 [Compound 88]  human TREK-1 (Homo sapiens)            6.77
 5  Cc1cc(C#Cc2ccccc2)cnc1NC(=O)c1c(Cl)cnn1C1CCN(S(C)(=O)=O)CC1 [Compound 163]  human TREK-1 (Homo sapiens)            6.59
 6  O=C(Nc1ncc(C#Cc2ccccc2)cc1F)c1c(Cl)cnn1C1CCN(C(=O)C2CC2)CC1 [Compound 130]  human TREK-1 (Homo sapiens)            6.66
 7  Cc1cc(C#Cc2ccccc2)cnc1NC(=O)c1c(Cl)cnn1C1CN(C(=O)C2CC2)C1 [Compound 87]  human TREK-1 (Homo sapiens)            6.77
 8  Cc1cc(C#Cc2cccs2)cnc1NC(=O)c1c(Cl)cnn1C1CC2(C1)CN(C(=O)C1CC1)C2 [Compound 36]  human TREK-1 (Homo sapiens)            6.96
 9  CC(C)C(=O)N1CC2(CC(n3ncc(Cl)c3C(=O)Nc3ncc(C#Cc4ccccc4)cc3F)C2)C1 [Compound 182]  human TREK-1 (Homo sapiens)            6.55
10  Cc1cc(C#Cc2ccccc2)cnc1NC(=O)c1c(Cl)cnn1[C@H]1C[C@H](NC(=O)C(C)C)C1 [Compound 183]  human TREK-1 (Homo sapiens)            6.55
11  Cc1cc(C#Cc2cccs2)cnc1NC(=O)c1c(Cl)cnn1C1CCN(C(=O)C2CC2)CC1 [Compound 63]  human TREK-1 (Homo sapiens)            6.82
12  CC1(C(=O)N2CCC(n3ncc(Cl)c3C(=O)Nc3ncc(C#Cc4ccccc4)cc3F)CC2)CCC1 [Compound 112]  human TREK-1 (Homo sapiens)            6.70
13  Cc1cc(C#Cc2ccccc2)cnc1NC(=O)c1c(Cl)cnn1C1CCN(C(=O)C2COCCO2)C1 (centres unmarked) [Compound 80]  human TREK-1 (Homo sapiens)            6.80
14  CC(=O)N1CCC(Cn2ncc(Cl)c2C(=O)Nc2ncc(C#Cc3ccccc3)cc2C)CC1 [Compound 85]  human TREK-1 (Homo sapiens)            6.77
15  CC(C)C(=O)N1CCC(n2ncc(Cl)c2C(=O)Nc2ncc(C#Cc3cccs3)cc2F)CC1 [Compound 175]  human TREK-1 (Homo sapiens)            6.57
16  CC(=O)N1CCC(n2ncc(Cl)c2C(=O)Nc2ncc(C#Cc3cccs3)cc2F)CC1 [Compound 18]  human TREK-1 (Homo sapiens)            7.22
